# MEASURED ON: RIPK1 (recombinant GST-RIPK1 kinase domain, residues 1-327) (Homo sapiens (Human), UniProt Q13546)
# Sequence (Q13546 1-327): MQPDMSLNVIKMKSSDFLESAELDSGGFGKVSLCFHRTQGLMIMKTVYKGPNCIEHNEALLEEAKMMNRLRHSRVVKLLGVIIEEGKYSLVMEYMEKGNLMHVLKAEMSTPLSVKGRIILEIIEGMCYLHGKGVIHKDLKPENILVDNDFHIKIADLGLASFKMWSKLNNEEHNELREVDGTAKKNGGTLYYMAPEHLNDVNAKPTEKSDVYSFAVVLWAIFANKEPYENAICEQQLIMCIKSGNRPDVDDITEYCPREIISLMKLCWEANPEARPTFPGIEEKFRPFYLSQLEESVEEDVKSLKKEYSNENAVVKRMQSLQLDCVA
# ASSAY NOTES: RIPK1-ADP-Glo Enzymatic Assay
# Assay type: biochemical
# EXPERIMENTAL PARAMETERS: ADP-Glo; 25 nM GST-RIPK1, 300 μM ATP; assay lower limit ~25 nM; read-out: RIPK1 V0 Ec50
Entries and their measured EC50 follow.
Just the number please, in nM, no unit attached.

# count of solved cases: 10
Give the measured EC50 for N#Cc1cncc(N2CCC3(CC2)O[C@@H]2CC[C@@H](c4ccccc4)N2C3=O)n1 113

Report EC50, nothing else, for this molecule: O=C1N2[C@@H](CC[C@H]2c2ccccc2)OC12CCN(c1ncnn3ccnc13)CC2 27.3

Return the recorded EC50 value; entry: Cc1nccc(C(=O)N2CCC3(CC2)O[C@@H]2CC[C@@H](c4cc(F)cc(F)c4)N2C3=O)n1 245

Specify measured EC50 for O=C1N2[C@@H](CC[C@H]2c2ccccc2F)OC12CN(c1cc(Cl)ncn1)C2 . 101

Answer with reported EC50 of O=C(c1cc(F)ccc1F)N1CC2(C1)O[C@@H]1CC[C@@H](c3cc(F)cc(F)c3)N1C2=O 41.7

Tell me measured EC50 for O=C(c1ccn2ncnc2n1)N1CCC2(CC1)O[C@@H]1CC[C@@H](c3cc(F)cc(F)c3)N1C2=O please. 43.8

Indicate its recorded EC50; the molecule in question is O=C(C1CC1)N1CCC2(CC1)O[C@@H]1CC[C@@H](c3cc(F)cc(F)c3)N1C2=O 256

Using the record for CC(C)N1Cc2nc(N3CCC4(CC3)O[C@@H]3CC[C@@H](c5ccccc5)N3C4=O)ccc2C1=O , state its measured EC50. 48.4

Look up and state reported EC50 for Cc1nc(N2CCC3(CC2)O[C@@H]2CC[C@@H](c4ccccc4)N2C3=O)ncc1-c1ccnn1C 36.6

Provide EC50 value for the following molecule: O=C(C1CCCC1)N1CCC2(CC1)O[C@@H]1CC[C@@H](c3cc(F)cc(F)c3)N1C2=O 409

Continuing:
Give a short answer stating reported EC50 for O=C(c1ncccc1Cl)N1CCC2(CC1)O[C@@H]1CC[C@@H](c3cc(F)cc(F)c3)N1C2=O . 147

Please look at this molecule and report its EC50: O=C(c1ccccn1)N1CCC2(CC1)O[C@@H]1CC[C@@H](c3cc(F)cc(F)c3)N1C2=O 56.9

Assign EC50 to the following record: O=C(c1cc2ccccc2o1)N1CCC2(CC1)O[C@@H]1CC[C@@H](c3cc(F)cc(F)c3)N1C2=O 45.3

Recall and state the measured EC50 for Cc1ncc([C@@H]2CC[C@H]3OC4(CCN(c5ccnc6c(F)cnn56)CC4F)C(=O)N32)cc1F (some centres unmarked) [Example 4.131] . 30.6

Give EC50 for O=C1CCc2c1cccc2C(=O)N1CCC2(CC1)O[C@@H]1CC[C@@H](c3cc(F)cc(F)c3)N1C2=O 208

For N#CCc1nc(C(=O)N2CCC3(CC2)O[C@@H]2CC[C@@H](c4cc(F)cc(F)c4)N2C3=O)cs1 , write its EC50. 413

====

Entries and their pEC50
# MEASURED ON: RIPK1 (recombinant GST-RIPK1 kinase domain, residues 1-327) (Homo sapiens (Human))
# ASSAY NOTES: RIPK1-ADP-Glo Enzymatic Assay
# Type: biochemical
# EXPERIMENTAL PARAMETERS: ADP-Glo; 25 nM GST-RIPK1, 300 μM ATP; assay lower limit ~25 nM; read-out: RIPK1 V0 Ec50
Scale: pEC50 equals -log10([C]), with [C] in mol/L.

Entry O=C(c1ccccc1)N1CCC2(CC1)O[C@@H]1[C@@H](O)C[C@@H](c3ccccc3)N1C2=O needs its pEC50 filled in; supply it. 6.87

Consider now this further compound.
Quick one: give measured pEC50 for O=C(c1cscn1)N1CCC2(CC1)O[C@@H]1CC[C@@H](c3cc(F)cc(F)c3)N1C2=O 7.48

====

# pEC50 listing for each entry below
# MEASURED ON: RIPK1 (recombinant GST-RIPK1 kinase domain, residues 1-327) (Homo sapiens (Human), UniProt Q13546)
# ASSAY NOTES: RIPK1-ADP-Glo Enzymatic Assay
# Type: biochemical
# EXPERIMENTAL PARAMETERS: ADP-Glo; 25 nM GST-RIPK1, 300 μM ATP; assay lower limit ~25 nM; read-out: RIPK1 V0 Ec50
Schema: pEC50 number; meaning minus log10 of the concentration expressed in molar units.

Reference set, count: 2
Identify pEC50 associated with the molecule CC1CC2(CCN1c1ccnc3ccnn13)O[C@@H]1CC[C@@H](c3ccccc3)N1C2=O (stereo partly shown) [Example 4.247] 7.06

Quickly give me recorded pEC50 for Cc1cnn(-c2cc(N3CCC4(CC3)O[C@@H]3CC[C@@H](c5ccccc5)N3C4=O)ncn2)c1 [Example 4.26] 7.61

Others:
Look up and state reported pEC50 for O=C1N2[C@@H](CC[C@H]2c2ccccc2)OC12CCN(c1nccc(C3CC3)n1)CC2 [Example 11.12] 7.01

====

# MEASURED ON: RIPK1 (recombinant GST-RIPK1 kinase domain, residues 1-327) (Homo sapiens (Human))
# ASSAY NOTES: RIPK1-ADP-Glo Enzymatic Assay
# Format: biochemical
# EXPERIMENTAL PARAMETERS: ADP-Glo; 25 nM GST-RIPK1, 300 μM ATP; assay lower limit ~25 nM; read-out: RIPK1 V0 Ec50
VALUE TYPE: EC50 (nM)
Please respond with the number in nM and leave the unit unwritten.

Known EC50 results, listed for orientation:
Using the record for O=C(c1cocn1)N1CCC2(CC1)O[C@@H]1CC[C@@H](c3cc(F)cc(F)c3)N1C2=O [Example 5.54] , state its measured EC50. 27.2

State, in one line, measured EC50 of N#Cc1cccc(C(=O)N2CCC3(CC2)O[C@@H]2CC[C@@H](c4cccc(F)c4)N2C3=O)c1F 47.5

Report EC50, nothing else, for this compound: O=C1N2[C@@H](CC[C@H]2c2cc(F)cc(F)c2)OC12CCN(c1ncc(Cl)cn1)CC2 48.6

Now let's try a different one.
Specify EC50 for O=C(c1ccn(C2CC2)n1)N1CCC2(CC1)O[C@@H]1CC[C@@H](c3cc(F)cc(F)c3)N1C2=O and stop. 88.8

====

# MEASURED ON: RIPK1 (recombinant GST-RIPK1 kinase domain, residues 1-327) (Homo sapiens (Human), UniProt Q13546)
# ASSAY NOTES: RIPK1-ADP-Glo Enzymatic Assay
# Type: biochemical
# EXPERIMENTAL PARAMETERS: ADP-Glo; 25 nM GST-RIPK1, 300 μM ATP; assay lower limit ~25 nM; read-out: RIPK1 V0 Ec50
VALUE TYPE: EC50 (nM)
Give the value in nM but do not write nM after it.

// fetch EC50 given entry O=C(c1ncc(F)cc1F)N1CCC2(CC1)O[C@@H]1CC[C@@H](c3cc(F)cc(F)c3)N1C2=O 35.4

New cases:
Please report the measured EC50 for COC(=O)c1c(C)cc(N2CCC3(CC2)O[C@@H]2CC[C@@H](c4ccccc4)N2C3=O)nc1C#N 54.4

====

# MEASURED ON: RIPK1 (recombinant GST-RIPK1 kinase domain, residues 1-327) (Homo sapiens (Human))
# ASSAY NOTES: RIPK1-ADP-Glo Enzymatic Assay
# Assay type: biochemical
# EXPERIMENTAL PARAMETERS: ADP-Glo; 25 nM GST-RIPK1, 300 μM ATP; assay lower limit ~25 nM; read-out: RIPK1 V0 Ec50
VALUE TYPE: EC50 (µM)
Give the quantity in µM, number only.

Sample records with EC50:
Give a short answer stating reported EC50 for O=C(c1cc(F)ccc1Cl)N1CCC2(CC1)O[C@@H]1CC[C@@H](c3ccccc3F)N1C2=O . 0.0334

Please give measured EC50 of the following entry: O=C(c1cc(F)ccn1)N1CCC2(CC1)O[C@@H]1CC[C@@H](c3cc(F)cc(F)c3)N1C2=O 0.0406

Proceeding to the next compound to report its EC50.
# return recorded EC50 for input Cc1ccc(C(=O)N2CCC3(CC2)O[C@@H]2CC[C@@H](c4cc(F)cc(F)c4)N2C3=O)nc1C 0.192

====

Quick reference for pEC50 among some compounds
# MEASURED ON: RIPK1 (recombinant GST-RIPK1 kinase domain, residues 1-327) (Homo sapiens (Human))
# ASSAY NOTES: RIPK1-ADP-Glo Enzymatic Assay
# Format: biochemical
# EXPERIMENTAL PARAMETERS: ADP-Glo; 25 nM GST-RIPK1, 300 μM ATP; assay lower limit ~25 nM; read-out: RIPK1 V0 Ec50
Where a name gives a salt, the structure may show the parent alone.
Lab note: report pEC50 as minus log10 of the concentration in molar units, number only.

Identify measured pEC50 corresponding to CSc1cc(N2CCC3(CC2)O[C@@H]2CC[C@@H](c4cc(F)cc(F)c4)N2C3=O)ncc1C#N 7.52

For the compound CC1(NC(=O)c2nc(N3CCC4(CC3)O[C@@H]3CC[C@@H](c5cc(F)cc(F)c5)N3C4=O)ncc2F)CC1 , give its reported pEC50. 7.04

Note down pEC50 recorded for Cc1cc2nccc(N3CCC4(CC3)O[C@@H]3CC[C@@H](c5cc(F)cc(F)c5)N3C4=O)n2n1 [Example 4.85, TFA salt] 7.20

---
Tell me measured pEC50 for O=C(c1cnc(Cl)cn1)N1CCC2(CC1)O[C@@H]1CC[C@@H](c3cc(F)cc(F)c3)N1C2=O please. 7.07
